# credit: paper PMC10397247

# test_target: T1, 4H406-AA
# T1 chain: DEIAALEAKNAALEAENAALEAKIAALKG
# test_method_notes: two-hybrid library CCmax;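 note: natural log of median RNA to DNA barcode read ratio; higher means stronger binding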
# cond: mean of both orientations
measured_endpoint: interaction score
# respond with the number and nothing more

Worked examples, 3 binders total:
DKIAALKAKNAALEAKNAALKAEIAALEG [4H3001-AA] ... 2.27
DKNAALEAKIAALKAKIAALKAKIAALKG [4H3438-AA] ... -1.51
DKIAALEAENAALEAKIAALKAENAALEG [4H2219-AA] ... -1.81

For the binder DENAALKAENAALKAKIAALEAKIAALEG [4H1765-AA] , give its measured interaction score value.
-1.54

Please report the measured interaction score for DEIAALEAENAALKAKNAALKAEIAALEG [4H249-AA]
1.19

State its interaction score for this binder: DENAALKAENAALKAEIAALKAEIAALKG [4H1738-AA]
-1.49

Assign interaction score to the following record: DKIAALKAENAALEAKIAALKAENAALKG [4H2732-AA]
-1.22
